Below, each entry is listed alongside its reported Emax.
Target: ER-α (Homo sapiens, UniProt P03372)
Construct: endogenous in cells; host or cells: MCF-7
Sequence (P03372 whole entry): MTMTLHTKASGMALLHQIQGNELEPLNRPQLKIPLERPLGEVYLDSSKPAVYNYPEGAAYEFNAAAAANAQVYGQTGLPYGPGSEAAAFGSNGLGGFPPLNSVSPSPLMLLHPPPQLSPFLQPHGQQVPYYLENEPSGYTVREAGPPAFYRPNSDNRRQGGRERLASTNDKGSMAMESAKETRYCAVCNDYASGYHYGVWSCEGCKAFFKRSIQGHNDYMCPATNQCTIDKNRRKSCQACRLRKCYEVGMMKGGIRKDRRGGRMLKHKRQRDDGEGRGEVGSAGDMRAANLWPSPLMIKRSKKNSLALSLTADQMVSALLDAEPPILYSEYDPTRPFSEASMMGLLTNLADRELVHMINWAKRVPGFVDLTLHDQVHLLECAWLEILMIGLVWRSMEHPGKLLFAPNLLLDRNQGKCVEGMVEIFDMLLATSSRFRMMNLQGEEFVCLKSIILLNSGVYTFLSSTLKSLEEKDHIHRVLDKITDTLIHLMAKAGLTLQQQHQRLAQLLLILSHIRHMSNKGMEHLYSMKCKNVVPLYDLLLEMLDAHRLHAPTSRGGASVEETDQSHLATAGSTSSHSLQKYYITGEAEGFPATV
Assay: ER-α in Cell Western Assay (SP1)
Type: cell-based
Conditions: MCF7; MCF-7 cells, SP1 rabbit monoclonal Ab, 4 or 24 hr post compound addition; read-out: ER In-Cell Western Assay (SP1); Max Response

Incoming: # return recorded Emax for input CC1=C(c2cccc(O)c2)C(c2ccc(OC[C@H](C)N3CCC3)cc2)Oc2ccc(O)cc21 (some centres unmarked)
Outgoing: 60 to 85%

Incoming: Hello, please tell me recorded Emax for this one: CC1=C(c2cccc(O)c2)C(c2ccc(OCCN3CCC(C)CC3)cc2)Oc2ccc(O)cc21 (centres unmarked)
Outgoing: 60 to 85%

Incoming: Read off the recorded Emax for CC1=C(c2ccc(S(C)(=O)=O)cc2)C(c2ccc(OC[C@H](C)N3CC[C@@H](C)C3)cc2)Oc2ccc(O)cc21 (some centres unmarked)
Outgoing: 60 to 85%

Incoming: State, in one line, measured Emax of CC1=C(c2ccc(O)c(F)c2)C(c2ccc(OC[C@H](C)N3CC[C@@H](C)C3)cc2)Oc2ccc(O)cc21 (some centres unmarked)
Outgoing: ≥ 85%

Incoming: Identify measured Emax associated with CC1=C(c2cccc(O)c2)C(c2ccc(OC[C@H](C)N3CCC[C@H]3C)cc2)Oc2ccc(O)cc21 (some centres unmarked)
Outgoing: ≥ 85%

More entries:
Incoming: Specify Emax for CC1=C(c2cccc(O)c2)C(c2ccc(OCCN3CCC[C@H]3C)cc2)Oc2ccc(O)cc21 (some centres unmarked) and stop.
Outgoing: 60 to 85%

Incoming: Supply reported Emax belonging to this compound: CC1=C(c2ccc(O)c(C)c2)C(c2ccc(OC[C@H](C)N3CC[C@@H](C)C3)cc2)Oc2ccc(O)cc21 (some centres unmarked)
Outgoing: ≥ 85%

Incoming: Identify Emax associated with the compound CC1=C(c2cccc(O)c2)C(c2ccc(N(C)CCO)cc2)Oc2ccc(O)cc21 (centres unmarked)
Outgoing: < 60%

---

Molecular target: ER-α (Homo sapiens, UniProt P03372)
Construct: endogenous in cells; host or cells: MCF-7
Experiment: ER-α in Cell Western Assay (SP1)
Format: cell-based
Conditions: MCF7; MCF-7 cells, SP1 rabbit monoclonal Ab, 4 or 24 hr post compound addition; read-out: ER In-Cell Western Assay (SP1); Max Response
Method: MCF-7 cells were adjusted to a concentration of 200,000 cells per mL in RPMI containing 10% charcoal-stripped FBS and 20 mM HEPES. […] Integrated intensities in the 800 nm channel and 700 nm channel were measured to determine levels of ER and DNA respectively. Percent ER levels were determined as follows: (Integrated intensity 800 nm sample/integrated intensity 700 nm sample)/(Integrated intensity 800 nm untreated cells/integrated intensity 700 nm untreated cells)×100=% ER levels.
Listed next: entries and their corresponding Emax.

Look over these answered cases.
Incoming: Given CC1=C(c2cc(O)c(F)c(F)c2)C(c2ccc(OC[C@H](C)N3CC[C@@H](C)C3)cc2)Oc2ccc(O)cc21 (stereo partly shown) , respond with its Emax.
Outgoing: ≥ 85%

Incoming: Return Emax (reported value) for this compound: CC1=C(c2cccc(F)c2)C(c2ccc(OC[C@H](C)N3CC[C@@H](C)C3)cc2)Oc2ccc(O)cc21 (stereo partly shown)
Outgoing: ≥ 85%

Further cases:
Incoming: Identify measured Emax corresponding to C#Cc1ccc(C2=C(C)c3cc(O)ccc3OC2c2ccc(OC[C@H](C)N3CC[C@@H](C)C3)cc2)cc1 (stereo partly shown)
Outgoing: 60 to 85%

Incoming: Name the recorded Emax of the compound listed here: CC1=C(c2ccc(F)cc2Cl)C(c2ccc(OC[C@H](C)N3CC[C@@H](C)C3)cc2)Oc2ccc(O)cc21 (stereo partly shown)
Outgoing: 60 to 85%

---

Below, each of the molecules is paired with its reported DC50 value.
Target: ER-α (Homo sapiens)
Construct: endogenous in cells; host or cells: MCF-7
Experiment: ER-α In Cell Western Assay (ER1D5)
Type: cell-based
Settings: MCF-7 cells, ER1D5 antibody, 4 or 24 hr post compound addition; read-out: ER In-Cell Western Assay (ER1D5); IC50

Incoming: # return DC50 of CCN(CC)CCOc1ccc(C2Oc3ccc(O)cc3C(C)=C2c2cccc(O)c2)cc1 (stereo not drawn) (system: ER-α (Homo sapiens))
Outgoing: > 1 nM

API: the following record is the query input.
Incoming: Report DC50 from ER-α (Homo sapiens) testing of CC1=C(c2cccc(O)c2)C(c2ccc(N(C)CCO)cc2)Oc2ccc(O)cc21 (stereo not drawn)
Outgoing: > 1 nM
